# PROTOCOL TEXT: PhoP regulon inhibitors, Salmonella typhi PhoP promoter GFP reporter, confirmatory (AID 1850);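 also: 0% = induced wells with vehicle and 100% = uninduced wells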
# CONDITION CONTEXT: fluorescence, 4 h, at 50 µM, stronger effect = higher value
Hit rate of the full screen: of about 310,000 compounds, about 1,000 (0.32%) were called active. A selection follows. Entries with a potency or affinity are not part of this list.
inhibition reference
RECORDED METRIC: inhibition (%)

[[record]]
compound = "Cc1ccc(/C=N/Nc2cc(C)nc(NCc3ccccc3)n2)cc1"
unit_tag = "%"
result = 8.63

[[record]]
compound = "CC1CCCCN1CC(=O)c1ccc2cc[nH]c2c1 (stereo unspecified)"
unit_tag = "%"
result = -0.31

[[record]]
compound = "Cc1ccc2c(c1)c1c(n2CC(O)CNC2CCCC2)CCCC1 (stereo unspecified)"
unit_tag = "%"
result = 14.4

[[record]]
compound = "CS(=O)(=O)c1ccc(Cl)c(NC(=O)COC(=O)Cc2c[nH]c3ccccc23)c1"
unit_tag = "%"
result = -1.58

[[record]]
compound = "CCN1C(=O)NC(c2ccc(Cl)cc2)C2=C1CCCC2=O (stereo unspecified)"
unit_tag = "%"
result = -16.4

[[record]]
compound = "Cc1cc(N/N=C/c2ccccc2)nc(NCc2ccccc2)n1"
unit_tag = "%"
result = -6.44

[[record]]
compound = "Oc1c(C=NCc2ccc(F)cc2)[nH]c2ccc(Br)c(Cl)c12"
unit_tag = "%"
result = -22.5

[[record]]
compound = "O=C(O)c1ccccc1C(=O)Nc1ccc(Oc2ccc3ccccc3c2)cc1"
unit_tag = "%"
result = -5.98

[[record]]
compound = "O=c1oc2ccc(Cl)cc2nc1/C=C(\\O)c1ccco1"
unit_tag = "%"
result = -30.4

[[record]]
compound = "CCOC(=O)C1(Cc2ccccc2C(F)(F)F)CCN(Cc2ccon2)CC1"
unit_tag = "%"
result = -14.2

[[record]]
compound = "Cc1cc(Cl)ccc1OCC(=O)n1cc(C(=O)c2cc(Cl)ccc2O)cn1"
unit_tag = "%"
result = -8.17

[[record]]
compound = "CCn1c(N)nc2ccccc21"
unit_tag = "%"
result = 4.17

[[record]]
compound = "COc1ccc(S(=O)(=O)N2CCCC2CNC(=O)C(=O)NCCc2ccccc2)cc1 (stereo unspecified)"
unit_tag = "%"
result = 0.4

[[record]]
compound = "Cc1cc(N2CCN(c3ccccc3)CC2)nc(NCc2ccccc2)n1"
unit_tag = "%"
result = -4.52

[[record]]
compound = "Cc1c(-n2cc(C(=O)O)c(=O)c3cc(F)c(N4CCCC4)c(F)c32)c(=O)n(-c2ccccc2)n1C"
unit_tag = "%"
result = -2.73

[[record]]
compound = "CCOC(=O)c1cnc2cc(F)c(F)cc2c1N1CCN(C)CC1"
unit_tag = "%"
result = -5.38

[[record]]
compound = "Cc1ccc2c(c1)c1c(n2CC(O)CN2CCOCC2)CCCC1 (stereo unspecified)"
unit_tag = "%"
result = 5.45

[[record]]
compound = "CCn1cc(C(=O)O)c(=O)c2cc(F)c(N/N=C/c3ccccc3)cc21"
unit_tag = "%"
result = -3.82

[[record]]
compound = "Oc1c(Br)cc(Br)cc1/C=N/N1CCN(Cc2ccccc2)CC1"
unit_tag = "%"
result = -8.57

[[record]]
compound = "O=C1CC2(CCCC2)Oc2ccccc21"
unit_tag = "%"
result = 9.18

[[record]]
compound = "Cc1ncc(CC(=O)n2cc(C(=O)c3cc(F)ccc3O)cn2)s1"
unit_tag = "%"
result = 23.5

[[record]]
compound = "O=C(Cc1ccccc1)N/N=C/c1cc(Br)cc(Br)c1O"
unit_tag = "%"
result = 6.54

[[record]]
compound = "CN(CCCCN1CCOCC1)Cc1nc(-c2ccc3c(c2)OCO3)no1"
unit_tag = "%"
result = -10.5

[[record]]
compound = "Nc1nc2ccccc2n1CCOc1ccc(Cl)cc1"
unit_tag = "%"
result = 14.7

[[record]]
compound = "CCCCC(=O)N1CCN(c2nc3ccc(F)cc3s2)CC1"
unit_tag = "%"
result = -7.63

[[record]]
compound = "COC(=O)c1cc2oc(C)cc2n1CC(=O)N1CCCc2ccccc21"
unit_tag = "%"
result = -6.03

[[record]]
compound = "CC(C)CNC(=O)C(=O)NCCCN1CCOCC1"
unit_tag = "%"
result = 3.18

[[record]]
compound = "CC(C)N1C(=O)/C(=C\\c2nc3ccccc3c(=O)n2-c2ccccc2)c2ccccc21"
unit_tag = "%"
result = -1.3

[[record]]
compound = "COc1cc(Br)cc(/C=N/NC(=O)Cc2ccccc2)c1O"
unit_tag = "%"
result = 5.08

[[record]]
compound = "CCNC(=S)NNC(=O)c1cc(-c2cccc(OCC)c2)nc2ccccc12"
unit_tag = "%"
result = 10.8

[[record]]
compound = "O=C1CC(C(=O)Nc2ccccc2)S/C(=N\\NC(=O)c2ccccc2Cl)N1 (stereo unspecified)"
unit_tag = "%"
result = 21.9

[[record]]
compound = "Cc1ccc[n+](-c2nc3ccccc3nc2[N-]S(=O)(=O)c2ccccc2)c1"
unit_tag = "%"
result = -11.4

[[record]]
compound = "Oc1cccc(C=NCc2ccccc2)c1"
unit_tag = "%"
result = -11.2

[[record]]
compound = "COc1ccc(Cn2c(=O)oc3ccc(C)cc32)cc1"
unit_tag = "%"
result = 10.7

[[record]]
compound = "Cc1cc(C)n2c(Nc3ccc4c(c3)OCCO4)c(-c3ccccc3)nc2n1"
unit_tag = "%"
result = -10.2

[[record]]
compound = "COc1ccccc1CN1CCCC(CNC(=O)c2cccc3ccccc23)C1 (stereo unspecified)"
unit_tag = "%"
result = 3.54

[[record]]
compound = "O=C(c1cc(-c2cccc(O)c2)on1)N1CCCCCC1"
unit_tag = "%"
result = 14.9

[[record]]
compound = "CCNc1nc(NCC)nc(OCCOC(=O)c2ccccc2)n1"
unit_tag = "%"
result = -3.56

[[record]]
compound = "Cc1cc(C)cc(NC(=S)/N=C(\\N)Nc2nc(C)c3ccccc3n2)c1"
unit_tag = "%"
result = -5.71

[[record]]
compound = "COc1cccc(C2C(=O)N(C3CCCCC3)CC(=O)N2Cc2ccc(F)cc2)c1 (stereo unspecified)"
unit_tag = "%"
result = -2.24

[[record]]
compound = "Oc1cccc(/C=N/N=C/c2cccc(O)c2O)c1O"
unit_tag = "%"
result = 21.8

[[record]]
compound = "Cc1cc(Nc2ccccc2)nc(NCc2ccccc2)n1"
unit_tag = "%"
result = -0.96

[[record]]
compound = "Cc1ccc2oc(=O)c(/C=C(\\O)C(C)(C)C)nc2c1"
unit_tag = "%"
result = -12.4

[[record]]
compound = "Cc1cc(C)c(NC(=O)c2cn3c4c(c(N5CCN(C)CC5)c(F)cc4c2=O)OCC3C)c(C)c1 (stereo unspecified)"
unit_tag = "%"
result = 1.68

[[record]]
compound = "CC(C)(C)c1nnc(NC(=O)c2cccs2)s1"
unit_tag = "%"
result = 10.7

[[record]]
compound = "COc1cc(NC(=O)Cc2ccc(F)cc2)cc(OC)c1OC"
unit_tag = "%"
result = -5.66

